- ASSAY METHOD TEXT: Brain penetration in rat (unbound brain-to-plasma ratio, IV)
- Format: in vivo, male Sprague-Dawley rats
- MEASUREMENT CONDITIONS: male, Sprague-Dawley, brain and plasma, 1 mg/kg, 10 min post-dose, n = 3

STRUCTURE SMILES STRING: O=C1NCCc2c1cnn2-c1ccnc(Cc2cc(F)cc(C(F)(F)F)c2)c1
Kp uu at 10 min: 0.35

----------
- STUDY SYSTEM: human GPR52 (Homo sapiens, UniProt Q9Y2T5)
- Sequence (Q9Y2T5 whole entry): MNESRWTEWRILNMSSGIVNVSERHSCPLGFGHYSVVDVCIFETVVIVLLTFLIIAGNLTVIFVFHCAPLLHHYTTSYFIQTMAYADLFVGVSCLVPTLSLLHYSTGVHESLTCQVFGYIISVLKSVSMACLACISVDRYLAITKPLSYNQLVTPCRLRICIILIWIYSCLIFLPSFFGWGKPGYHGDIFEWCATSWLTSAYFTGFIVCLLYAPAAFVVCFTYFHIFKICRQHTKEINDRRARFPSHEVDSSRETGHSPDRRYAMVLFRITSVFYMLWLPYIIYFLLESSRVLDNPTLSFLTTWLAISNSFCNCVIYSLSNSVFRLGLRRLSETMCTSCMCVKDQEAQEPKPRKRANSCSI
- ASSAY METHOD TEXT: GPR52 Agonist Functional cAMP Assay;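 further: HEKf cells transduced with GPR52 BacMam for 24 h, 2000 per well, exposed to compounds 30 min at 37° C with 0.5 mM IBMX, cAMP read by HTRF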
- MEASUREMENT CONDITIONS: maximal response normalised to DMSO (0%) and maximal compound 7m (J. Med. Chem., 2014, 57, 5226) response (100%)
List of Emax values.

MOLECULE: O=C1NCCc2c1c(C(F)(F)F)nn2-c1ccnc(Cc2cc(F)cc(C(F)(F)F)c2)c1
Emax (%): 95
--
MOLECULE: O=C1NCCc2c1cnn2-c1ccnc(Cc2cc(F)cc(OC(F)F)c2)c1
Emax (%): 94
--
MOLECULE: O=C1NCCc2c1cnn2-c1ccnc(Cc2cc(Cl)cc(C(F)(F)F)c2)c1
Emax (%): 90
--
MOLECULE: O=C1NCCc2c1ccn2-c1ccnc(Cc2cc(F)cc(C(F)(F)F)c2)c1
Emax (%): 95
--
MOLECULE: COc1ncc(Cc2cc(-n3nc(C)c4c3CCNC4=O)ccn2)cc1F
Emax (%): 83
--
MOLECULE: O=C1NCCc2c1cnn2-c1ccnc(Cc2cc(F)c(F)c(F)c2)c1
Emax (%): 95
--
MOLECULE: O=C1NCCCc2c1cnn2-c1cc(Cc2cccc(C(F)(F)F)c2)ccn1
Emax (%): 86
--
MOLECULE: CC1Cc2c(cnn2-c2ccnc(Cc3cc(F)cc(C(F)(F)F)c3)c2)C(=O)N1 (single isomer, unassigned) [Example 40 Isomer 1]
Emax (%): 95
--
MOLECULE: Cc1cc(Cc2ccnc(-n3ncc4c3CCN(C)C4=O)c2)cnc1F
Emax (%): 83

----------
- STUDY SYSTEM: human GPR52 (Homo sapiens)
- ASSAY METHOD TEXT: GPR52 Agonist Functional cAMP Assay
- MEASUREMENT CONDITIONS: maximal response normalised to DMSO (0%) and maximal compound 7m (J. Med. Chem., 2014, 57, 5226) response (100%)
Listed below: Emax values for each entry.

STRUCTURE SMILES STRING: O=C1NCCc2c1cnn2-c1ccnc(Cc2cc(F)c(F)c(Cl)c2)c1
Emax (%): 100
//
STRUCTURE SMILES STRING: O=C1NCCc2c1cnn2-c1ccnc(Cc2ccc3sccc3c2)c1
Emax (%): 79
//
STRUCTURE SMILES STRING: N#Cc1cc(F)cc(Cc2cc(-n3ncc4c3CCNC4=O)ccn2)c1
Emax (%): 94
//
STRUCTURE SMILES STRING: O=C1NCCc2c1c(CO)nn2-c1cc(Cc2cc(F)cc(C(F)(F)F)c2)ccn1
Emax (%): 95
//
STRUCTURE SMILES STRING: COc1ncc(Cc2cc(-n3ncc4c3CCNC4=O)ccn2)cc1F
Emax (%): 83
//
STRUCTURE SMILES STRING: O=C1NCCc2c1c(CO)nn2-c1ccnc(Cc2cc(F)cc(C(F)(F)F)c2)c1
Emax (%): 93
//
STRUCTURE SMILES STRING: COc1cc(Cc2cc(-n3ncc4c3CCNC4=O)ccn2)cc(C(F)(F)F)c1
Emax (%): 44
//
STRUCTURE SMILES STRING: O=C1NCCc2c1cnn2-c1ccnc(Cc2cc(F)cc(C3(C(F)(F)F)CC3)c2)c1
Emax (%): 53
//
STRUCTURE SMILES STRING: O=C1NCCc2c1cnn2-c1ccnc(Cc2cnc(OC(F)F)c(F)c2)c1
Emax (%): 74
